Tested on: MS2 coat protein
Experiment: apparent Kd, MS2 coat protein; higher = weaker binding; RNA-MaP array; theophylline 2 mM where present
Conditions: ligand present: theophylline; designed as: ON switch for theophylline
Property label: apparent Kd (nM)
Your answer is read as nM, so omit the unit and give the number.

Examples from the recorded data:
sequence_data=AUAACAUGAGGAUCACCCAUGUAGAGUGAUACCAGACUACGUAAUGUCCCUUGGCAGCACAAGUAAAGUUACGAAUAUUGAUAGA observed_result=51.5
sequence_data=GCACUACAUGAGGAUCACCCAUGUGCAGAUACCAGAGGUGUAUGCCUCCCUUGGCAGCUGCGUCGCUCUGGCAGCUUGUGGGUUG observed_result=153
sequence_data=AACAUGAGGAUCACCCAUGUAAAAUGGGAUACCAGAGACGAAAGUCUCCCUUGGCAGCCCACUGCCUCCUUUACGAAAGUAGAGG observed_result=18.2

Form: sequence = ACAUGAGGAUCACCCAUGUGAAGGCACGAUACCAGCUGAUCCCGUGGCCCUUGGCAGCGUCCGGUUUGGUCCGGCGGAUGAGACG ; apparent Kd = 24.9

Form: sequence = UCGUGUAUAUCGGAUACCAGUGAGAACGAUACAUGAGGAUCACCCAUGUGAGUUGAUGUACACCCUUGGCAGCUGUAUAUAUCUA ; apparent Kd = 16.3

Form: sequence = AGCAUGUUAUCAGAUACCAGACAUCUUUUUUUACGUAUUACAUGAGGAUCACCCAUGUUGGUCCCUUGGCAGCUGAAAUAUUUCA ; apparent Kd = 31.9

----------
Test system: MS2 coat protein
Experiment: apparent Kd, MS2 coat protein; higher = weaker binding; RNA-MaP array; FMN 200 µM where present
Conditions: designed as: ON switch for flavin mononucleotide; no ligand
Property label: apparent Kd (nM)
Your answer is read as nM, so omit the unit and give the number.

sequence_data=CGAGGACAUGAGGAUCACCCAUGUAGCUACAAAACGCAGCGACAGGAUAUCCUCUGGUUCCCAUAGGAGAAGGGUCAAACCUUG units_label=nM observed_result=29.4
sequence_data=GGCUGUCUCGCAGGAUAUGCUGAUCAGAAACUAGCAGAAGGGUGAUCCAGUCGAGGUUUGACAUGAGGAUCACCCAUGUGGAGU units_label=nM observed_result=29.4
sequence_data=AGAGAGAGACAGAAGGGCAAGCUCGAUUGCGGAGAAAGCGAUCGAGCUUGCAGGAUAUGUUGAACAUGAGGAUCACCCAUGUCA units_label=nM observed_result=7.49

Form: sequence = UUGGUACAUGAGGAUCACCCAUGUGGGUCGGUCGCAGGAUAUGCCCGUGGGCGCUUGCGGGCAGAAGGGUGCCGUA ; apparent Kd = 392

Form: sequence = GUAUGAGCGAUAGGAUAUACUGAGAUUGAAUGGGUAGAAGGAUUUCUUGUGGGAAAGACAUGAGGAUCACCCAUGUCGCGGACC ; apparent Kd = 299

Form: sequence = CGUCUAUGCUAGAAGGCAUGAAACAUGAGGAUCACCCAUGUCAAAGACAUGAGGAUAUAGCAUAGACGAAAAGUGCGAAAGCAC ; apparent Kd = 4.43

Form: sequence = GCGAUUUUGUAAGGAUAUACACGAGUUUCAAGUGUAGAAGGUACUUACAUGAGGAUCACCCAUGUAUACUUGGAUAAUAGUCGU ; apparent Kd = 29.2
